target: SRC Catalytic Domain (Homo sapiens); test: Differential Scanning Fluorimetry (DSF) Tm shift; format: binding; set-up: For all of them, we expressed and purified the catalytic domain separately; His-tag; made in house; host or cells: Escherichia coli; conditions: 2 µM protein, 10 µM inhibitor, average of 3 experiments, each in duplicate
Sequence (P12931 270-523 limits assumed): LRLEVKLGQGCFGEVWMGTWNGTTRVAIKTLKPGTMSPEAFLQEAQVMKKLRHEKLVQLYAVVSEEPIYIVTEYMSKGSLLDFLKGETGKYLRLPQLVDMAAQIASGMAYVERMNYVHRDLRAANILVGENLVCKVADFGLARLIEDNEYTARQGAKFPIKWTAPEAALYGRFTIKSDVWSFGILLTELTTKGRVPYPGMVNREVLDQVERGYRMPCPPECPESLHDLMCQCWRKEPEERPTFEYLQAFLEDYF
Property name: Melting temperature (Tm) shift (degrees Celcius)

[[record]]
compound = "Cl.Cl.NCCNc1ncc(C(N)=O)c(Nc2cccc(C(F)(F)F)c2)n1 [Syk Inhibitor II]"
measurement_units = "degrees Celcius"
value_reported = 0.1

[[record]]
compound = "O=C1NC(=O)C(=Cc2cccc(C(F)(F)F)c2)S1 [PIM1/2 Kinase Inhibitor V]"
measurement_units = "degrees Celcius"
value_reported = 0.1

[[record]]
compound = "O=C1NC(=O)C(c2cn(CCCn3ccnc3)c3ccccc23)=C1Nc1ccccc1 [PKCb Inhibitor]"
measurement_units = "degrees Celcius"
value_reported = 0.1


// data source = paper PMC4051630
